Data provenance: patent US12583818B2

- testedTarget: Pin1 (Homo sapiens, UniProt Q13526)
- Construct: purchased Anaspec
- Sequence (Q13526 whole entry): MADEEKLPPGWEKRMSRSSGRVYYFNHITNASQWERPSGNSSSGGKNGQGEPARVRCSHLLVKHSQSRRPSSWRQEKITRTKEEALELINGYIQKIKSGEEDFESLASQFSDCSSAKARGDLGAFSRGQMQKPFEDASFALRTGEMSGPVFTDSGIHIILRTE
- assayNotes: Evaluation of Pin1 enzyme inhibitory activity (Sensolyte Green Pin1 assay kit)
- Type: biochemical
- setupConditions: concentration at which the Pin1 enzyme activity is inhibited; 2 hours at room temperature, fluorescence 490 nm/520 nm; read-out: Pin 1 inhibition
pIC50: −log10 of the molar value.
measuredAttribute: pIC50

molecule: CN(C)CCCOc1ccc(S(=O)(=O)NCCCn2ccc3ccccc32)cc1
measuredAttribute: pIC50
assayResult: < 4.00
//
molecule: CC1CN(CCCOc2ccc(S(=O)(=O)NCCCc3c[nH]c4ccc(Cl)cc34)cc2)CCN1 (stereo not drawn)
measuredAttribute: pIC50
assayResult: > 6.00
//
molecule: Cc1ncn(CCCOc2ccc(S(=O)(=O)NCCCc3c[nH]c4ccc(Cl)cc34)cc2)c1C
measuredAttribute: pIC50
assayResult: > 6.00
//
molecule: O=S(=O)(NCCCc1c[nH]c2ccc(Cl)cc12)c1ccc(OCCCN2CCNCC2)nc1
measuredAttribute: pIC50
assayResult: > 6.00
//
molecule: Cc1[nH]c2ccc(Cl)cc2c1CCCNS(=O)(=O)c1ccc(OCCCN2CCN(C)CC2)cc1
measuredAttribute: pIC50
assayResult: > 6.00
//
molecule: O=S(=O)(NCCCc1c[nH]c2ccc(Cl)cc12)c1ccc(NCCCC2CCNCC2)cc1
measuredAttribute: pIC50
assayResult: > 6.00
//
molecule: O=S(=O)(NCCCc1c[nH]c2ccc(Cl)cc12)c1ccc(Oc2cccc(N3CCOCC3)c2)cc1
measuredAttribute: pIC50
assayResult: 5.00 to 6.00
//
molecule: CN1CCN(CCCOc2ccc(S(=O)(=O)NCCCc3n[nH]c4ccc(Cl)cc34)cc2)CC1
measuredAttribute: pIC50
assayResult: > 6.00
//
molecule: O=S(=O)(NCCCc1c[nH]c2ccc(F)cc12)c1ccc(OCCCN2CCCCC2)cc1
measuredAttribute: pIC50
assayResult: 5.00 to 6.00
